Test system: NCI-H226
Assay: NCI tumour cell line growth inhibition, 48 h
Active and inactive are the calls of the source. No stated cut-off is given here; in the data, active = GI50 up to about 1.1 µM and inactive = higher. Where a SMILES comes first, the peptide text is derived from it. [ ]: non-standard residue; d: D form. Ac5c = NC1(C(=O)O)CCCC1
The categories you may choose from are y (active), n (inactive)

Clc1ccc(OCc2nnc(CCCCCCCCc3nnc(COc4ccc(Cl)cc4)n3Nc3ccccc3)n2Nc2ccccc2)cc1
n
Cc1ccc(C2(N3CCCC3)OC(C)(C)c3cccc4cccc2c34)cc1 (stereo not drawn)
n

Task: Hi team, can someone confirm the assay call for NC1(C(=O)NC2(C(=O)O)CCCC2)CCCC1 (H-[Ac5c]-[Ac5c]-OH) ?
Output: n

Task: Hi team, can someone confirm the assay call for `Clc1ccc(-c2cc(-c3cc4cc(Br)ccc4nc3Cl)on2)cc1` ?
Output: n

Task: Hi team, can someone confirm the assay call for CC(=O)OCC1OC(n2c3c(c(-c4cccc5ccccc45)c(C#N)c2=S)CCCC3)C(OC(C)=O)C(OC(C)=O)C1OC(C)=O (stereo not drawn) ?
Output: n

Task: Hi team, can someone confirm the assay call for `COC(=O)C1(Cc2ccccc2)Cc2ccccc2C1` ?
Output: n

Task: Hi team, can someone confirm the assay call for `N#CCCN(CCC#N)c1ccc(/C=C2\SC(=S)NC2=O)cc1` ?
Output: n

Task: Hi team, can someone confirm the assay call for COC(=O)[C@@]12OC[C@]34[C@H]([C@@H](O)[C@@H]1O)[C@@]1(C)CC(=O)C(O)=C(C)[C@@H]1C[C@H]3OC(=O)[C@H](OC(=O)/C=C(\C)C(C)C)[C@@H]24 [BRUCEANTIN] ?
Output: y

Task: Hi team, can someone confirm the assay call for `CCCCSc1nsc(N(C(=O)c2ccccc2)C(=O)c2ccccc2)n1` ?
Output: n

Task: Hi team, can someone confirm the assay call for O=C1C(CN2CCCC2)CCCC1CN1CCCC1 (stereo not drawn) ?
Output: n

Task: Hi team, can someone confirm the assay call for Cc1ccc(OCC2=NN3C(=O)/C(=C\c4ccc([N+](=O)[O-])o4)SC3N2)cc1 (stereo not drawn) ?
Output: n

Task: Hi team, can someone confirm the assay call for `O=c1c2cc(Br)ccc2[nH]c(=S)n1-c1ccccc1` ?
Output: n

Task: Hi team, can someone confirm the assay call for NC1=NN(c2ccccc2)C2(c3ccncc3C(=O)O)C1C(N)=NN2c1ccccc1 (stereo not drawn) ?
Output: n

Task: Hi team, can someone confirm the assay call for `CC(C)=CC(=O)CC(=O)C(=O)Nc1ccc(Cl)c(Cl)c1` ?
Output: n

Task: Hi team, can someone confirm the assay call for `C#CCn1c(=O)c(C)cn(/C(=C/C(=O)OCC)C(=O)OCC)c1=O` ?
Output: n

Task: Hi team, can someone confirm the assay call for `COc1cc(Oc2nc3ccc(C(F)(F)F)cc3nc2-c2ccccc2)cc(OC)c1OC` ?
Output: n

Task: Hi team, can someone confirm the assay call for `CCCCNc1nc(SC)nc2[nH]cnc12` ?
Output: n

---

Test system: EKVX
Assay: NCI tumour cell line growth inhibition, 48 h
The source made the active and inactive calls. Cut-off read from the data, not from the text of the source: active = GI50 up to about 1.1 µM and inactive = higher.
ENDPOINT: GI50

CCc1cccc(C(C)C)c1NC(=O)C(=O)Nn1c(S)nc2ccccc2c1=O
37.8 µM (inactive)
CC12CC(=O)C3C(C(=O)C1)C32C (stereo unspecified)
> 100 µM (inactive)
CC(=O)Nc1ccc(Sc2nnc(NC(C)=O)s2)cc1
> 100 µM (inactive)
CC1(C)O[C@@H](CCl)C[C@H](C#N)O1
> 100 µM (inactive)
CCOC(=O)C(=O)CC(=O)C(Br)C(Br)c1ccc(Cl)cc1 (stereo unspecified)
> 100 µM (inactive)
Fc1ccc(Oc2nc3ccccc3nc2-c2ccccc2)cc1
> 100 µM (inactive)
COc1cc(Oc2nc3ccc(C(F)(F)F)cc3nc2-c2ccccc2)cc(OC)c1OC
37.8 µM (inactive)
CN(C)CCNC(=O)c1cccc2c(=O)c3ccccc3oc12
> 66.1 µM (inactive)

Hello, I would appreciate it if you could give GI50 for each entry below.
1. CC1=Nn2c(nnc2-c2ccc(Cl)cc2)NC(C)(C)C1
2. O=c1/c(=C/c2ccccc2[N+](=O)[O-])sc2nnc(-c3cccnc3)n12
3. CC(=O)OCC1OC(O/C=C(\CN=[N+]=[N-])C(C)=O)C(OC(C)=O)C(OC(C)=O)C1OC(C)=O (stereo unspecified)

Output:
> 100 µM (inactive)
> 100 µM (inactive)
14.7 µM (inactive)

---

Tested on: DMS-273
Experiment: NCI tumour cell line growth inhibition, 48 h
Active and inactive are the calls of the source. Rule as the data show it: active = GI50 up to about 1.1 µM and inactive = higher.
The categories you may choose from are true for active, false for inactive

COc1ccc(CNc2cnc3ccc(N)cc3n2)cc1
true

Now consider a different molecule.
Task: Hi team, can someone confirm the assay call for C/C1=C/C2OC(=O)C3(C)C2C(CC2(C)OC1=CC2=O)OC3(O)C(C)C (stereo not given) ?
Output: false

---

Tested on: M19-MEL
Experiment: NCI tumour cell line growth inhibition, 48 h
Activity calls are given as the source filed them. No stated cut-off is given here; in the data, active = GI50 up to about 1.1 µM and inactive = higher.
The categories you may choose from are active, inactive

COc1ccc2c(c1)[n+]([O-])c(C(=O)C/C(=N/NC(=O)c1ccccc1O)C(=O)Nc1ccc(Cl)c(C(F)(F)F)c1)c(C)[n+]2[O-]
inactive
NC(CCCC(N)P(=O)(O)O)C(=O)O (centres undefined)
inactive
COc1ccc(CNc2cnc3ccc(N)cc3n2)cc1
active
c1cnc2c(c1)-n1cccc1C1(CCOCC1)NN2
inactive
O=C(/C=C/c1ccccc1)Oc1cccc2cccnc12
inactive
Cc1cc(O)c2c(=O)c3c(O)cc(O)c4c5c(O)cc(O)c6c(=O)c7c(O)cc(C)c8c1c2c(c34)c(c78)c65
inactive
CC(O)CNC(=O)C(C)Oc1ccc(OCC2CCCCC2)cc1 (centres undefined)
inactive
C/C(=C\C(C[C@](C)(O)C(O)CCC#C[Si](C)(C)C)S(=O)(=O)c1ccccc1)CC/C=C/CO[Si](C)(C)C(C)(C)C (some centres undefined)
inactive

Now consider a different molecule.
Task: Hi team, can someone confirm the assay call for Nc1nc(SCCC/C=C/I)nc2c1ncn2C1OC(COP(=O)(O)O)C(O)C1O (centres undefined) ?
Output: inactive

---

System: SNB-19
Test: NCI tumour cell line growth inhibition, 48 h
Active and inactive are the calls of the source. No stated cut-off is given here; in the data, active = GI50 up to about 1.1 µM and inactive = higher.
ENDPOINT: GI50

# annotated cases, reported GI50 shown
Cn1c(=S)[nH]c(N)c(Cc2ccccc2)c1=O
> 100 µM (inactive)
CCCCCC(/C=N/N)C(O)(C(F)(F)F)C(F)(F)F (centres undefined)
4.08 µM (inactive)
COc1ccc(/C=C(\NC(=O)c2ccccc2)c2nc3ccccc3[nH]2)cc1OC
> 100 µM (inactive)
C/C1=C/C2OC(=O)C3(C)C2C(CC2(C)OC1=CC2=O)OC3(O)C(C)C (centres undefined)
42.5 µM (inactive)
Fc1ccc(Oc2nc3ccccc3nc2-c2ccccc2)cc1
> 100 µM (inactive)

Hello, I would appreciate it if you could give GI50 for each entry below.
1. CC1(C)OC(=O)N(c2ccccc2)C12C=Cc1cc([N+](=O)[O-])cc([N+](=O)[O-])c1O2 (centres undefined)
2. CC(C)/C(Cl)=N/OC(=O)Nc1ccc(F)c(Cl)c1
3. OCC1OC2c3ccccc3COC2C1OCc1ccccc1 (centres undefined)
4. CC(C)(C)[Si](Nc1ccccc1)(c1ccccc1)c1ccccc1
5. CCCCNc1nc(SC)nc2[nH]cnc12

Output:
1: > 100 µM (inactive); 2: 22.6 µM (inactive); 3: > 100 µM (inactive); 4: 14.1 µM (inactive); 5: > 74 µM (inactive)

Hello, I would appreciate it if you could give GI50 for each entry below.
1. C[N+](C)(C)CCOP(=O)([O-])OCCNC(=O)c1ccc2ccccc2c1
2. COc1ccc(C(Cl)=C(c2ccc(OCCN(C)C)cc2)c2ccc(OCCN(C)C)cc2)cc1
3. CC(CO)(CO)/N=C/c1cc(I)cc(I)c1O

Output:
> 100 µM (inactive)
2.42 µM (inactive)
20.3 µM (inactive)

Hello, I would appreciate it if you could give GI50 for each entry below.
1. CC(=O)OCC1OC(n2c3c(cc(C#N)c2=S)CCCCC3)C(OC(C)=O)C(OC(C)=O)C1OC(C)=O (centres undefined)
2. COC(=O)C12CC(C3CC31)C1CC12 (centres undefined)

Output:
["> 100 µM (inactive)", "> 100 µM (inactive)"]

Hello, I would appreciate it if you could give GI50 for each entry below.
1. CCOC(=O)/C=C/[C@H](O[Si](c1ccccc1)(c1ccccc1)c1ccccc1)C(C)(C)C
2. CCOC(=O)CC(NC(=O)c1nc[nH]c1/N=N/N(C)C)C(=O)OCC (centres undefined)

Output:
1. > 31.6 µM (inactive)
2. > 100 µM (inactive)

---

System: DMS-273
Assay: NCI tumour cell line growth inhibition, 48 h
Activity calls are given as the source filed them. Cut-off read from the data, not from the text of the source: active = GI50 up to about 1.1 µM and inactive = higher.
The categories you may choose from are Y = active, N = inactive

Some solved cases for reference:
CN(CCO)/N=N/c1[nH]cnc1C(N)=O
N
Cc1ccc(C)c(NC(=O)CC/C(=N\NC(=O)c2c(O)ccc3ccccc23)C(C)C(=O)c2ccc(O)cc2)c1 (stereo unspecified)
N
C#Cc1cccc(N2C(=O)CCC2=O)c1
N

Task: Hi team, can someone confirm the assay call for `COc1ccc(-c2c(N)[n+]([O-])c3cc(C)c(C)cc3[n+]2[O-])cc1OC` ?
Output: N

Task: Hi team, can someone confirm the assay call for `CCOC(=O)NC(=O)c1cn(CCN2CCN(C(=O)CNC(=O)CNC(=O)Cn3cc(C(=O)NC(=O)OCC)c(=O)[nH]c3=O)CC2)c(=O)[nH]c1=O` ?
Output: N

Task: Hi team, can someone confirm the assay call for `CC(C)(C)[Si](Nc1ccccc1)(c1ccccc1)c1ccccc1` ?
Output: N

Task: Hi team, can someone confirm the assay call for `Cn1cnc([N+](=O)[O-])c1Sc1n[nH]c(-c2ccc(Cl)cc2)n1` ?
Output: N
